As shown below, each of these compounds has a reported pest or weed control at 125 g/ha value.
Test system: ryegrass, Italian (Italian ryegrass, Lolium multiflorum)
Protocol: Test A preemergence
Type: in vivo
Condition Parameters: Lolium multiflorum, pre-emergence, 240 h, 125 g ai/ha, Preemergence, visual injury rating after approximately 10 d; read-out: Ryegrass, Italian plant response rating (0 to 100 scale, 0 is no effect, 100 is complete control)
Excerpt: […]
Observed Property: pest or weed control at 125 g/ha (%)

                                    compound  output_unit  value_observed
 0  CN1C[C@H](c2cc(F)cc(C(F)(F)F)c2)[C@@H](C(=O)Nc2cccc(Cl)c2F)C1=O            %              20
 1  CC(C)COc1cccc([C@H]2CNC(=O)[C@@H]2C(=O)Nc2ccc(F)cc2F)c1            %              20
 2  COc1ccc([C@H]2CN(C)C(=O)[C@@H]2C(=O)Nc2ccccc2SC)cc1C(F)(F)F            %               0
 3  Cc1ccc([C@H]2CNC(=S)[C@@H]2C(=O)Nc2cccc(F)c2F)cc1 (racemic)            %               0
 4  O=C(Nc1cccc(F)c1F)[C@H]1C(=S)NC[C@@H]1c1ccc(C(F)(F)F)cc1 (racemic)            %              20
 5  Cc1ccc([C@H]2CN(C)C(=O)[C@@H]2C(=O)Nc2ccccc2[S+](C)[O-])cc1F (single isomer, unassigned)            %               0
 6  CC(C)Oc1ccc([C@H]2CN(C)C(=O)[C@@H]2C(=O)Nc2cccc(F)c2F)cc1            %               0
 7  O=C(Nc1ccc(F)c(F)c1F)[C@H]1C(=O)N(C2CC2)CC[C@@H]1c1ccc(F)cc1            %               0
 8  CSc1ccccc1NC(=O)[C@H]1C(=O)NC[C@@H]1c1cc(F)cc(Cl)c1            %               0
 9  CC(C)Oc1ccc([C@H]2CN(C)C(=O)[C@@H]2C(=O)Nc2ccccc2F)cc1            %               0
10  CN1C[C@H](c2cc(F)cc(C(F)(F)F)c2)[C@@H](C(=O)Nc2ccc(F)c(F)c2F)C1=O            %              80
11  CN1CC[C@H](c2ccc(OC(F)(F)F)cc2)[C@@H](C(=O)Nc2ccccc2C(F)(F)F)C1=O            %               0

###

Test system: giant foxtail (Setaria faberii)
Protocol: Test A preemergence
Type: in vivo
Condition Parameters: 125 g ai/ha, Preemergence; visual injury after approximately 10 d; 0 to 100 scale where 0 is no effect and 100 is complete control
As shown below, each of these compounds has a reported Plant response rating, Foxtail, Giant value.
Observed Property: Plant response rating, Foxtail, Giant

In [3]: df
Out[3]:
                                    compound  value_observed
 0  CCc1cccc(C2CN(C)C(=O)C2C(=O)Nc2cccc(F)c2F)c1 (stereo not drawn)             100
 1  Cc1ccc(C2CN(C)C(=O)C2C(=O)Nc2ccccc2F)c(F)c1 (stereo not drawn)             100
 2  O=C1NCC(c2cc(Br)cs2)C1C(=O)Nc1cccc(F)c1F (racemic)              60
 3  C#Cc1cccc(C2CNC(=O)C2C(=O)Nc2cccc(F)c2F)c1 (racemic)              40
 4  O=C1NCC(c2ccsc2Br)C1C(=O)Nc1cccc(F)c1F (stereo not drawn)               0
 5  C=CCN1CC(c2cccc(C(F)(F)F)c2)C(C(=O)Nc2ccccc2F)C1=O (stereo not drawn)              90
 6  CCC1(C(=O)Nc2cccc(F)c2F)C(=O)N(C)CC1c1cccc(C(F)(F)F)c1 (stereo not drawn)              90
 7  CN1CC(c2cccc(C(F)(F)F)c2)C(C(=O)Nc2cccc(C#N)c2F)C1=O (stereo not drawn)              90
 8  O=C1NCC(c2c(F)cccc2F)C1C(=O)Nc1ccccc1F (racemic)               0
 9  O=C1NCC(c2cccc(C(F)(F)F)c2)C1C(=O)Nc1ccc(Cl)cc1F (racemic)              70
10  O=C1NCC(c2ccsc2Cl)C1C(=O)Nc1cccc(F)c1F (stereo not drawn)              30
11  Cc1ccc(C2CNC(=O)C2C(=O)Nc2ccc(F)cc2F)cc1C(F)(F)F (racemic) [Compound 655]              90
